target: T1, CD27 expressed on the cell surface (HT1080_CD27 cells) (human, UniProt P26842 20-260); also: test concentration or dose not given here
T1 sequence (looked up): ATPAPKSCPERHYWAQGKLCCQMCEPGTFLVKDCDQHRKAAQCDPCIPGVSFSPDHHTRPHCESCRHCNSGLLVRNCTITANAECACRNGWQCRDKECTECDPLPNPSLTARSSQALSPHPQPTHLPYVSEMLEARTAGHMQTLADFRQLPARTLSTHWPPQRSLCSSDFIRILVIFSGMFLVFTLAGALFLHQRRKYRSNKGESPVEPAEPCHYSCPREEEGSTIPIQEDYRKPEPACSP
experimental protocol: cell-based or functional assay
Entries annotated with measured IL-8, cross-linked by F(ab')2 fragment [abs. corr.]
Numbers only here, please. The scale is abs. corr..

These recorded examples may help you get a feel for the data.
[[record]]
binder = "P018.S.02.A.B05 (antibody, V domains shown, V regions on human Ig constant parts; also called AB27_31) VH: QEQLVESGGGLVQPEGSLTLTCKASGFDFSSSYYMSWVRQAPGKGLEWIACIDTADGYTYYASWAKGRFTISKTSSTTVSLQMTSLTAADTATYFCARERIAYNTDYFNLWGPGTLVTVSS VL: AQVLTQTPSPVSAAVGGTVTISCQSSQSLYNYNNLAWYQQKPGQPPKLLIYSVSNLASGVPSRFGGSGSGTQFTLTISDLQSDDAATYYCQGYYSGAVYTFGGGTEVVVK"
test_value = 1.76

[[record]]
binder = "P018.S.07.A.D03 (antibody, V domains shown, V regions on human Ig constant parts; also called AB27_122) VH: QEQLKESGGGLVTPGGTLTLTCTVSGFSLSGHDMGWVRQAPGKGLEWIGIIGSNSKTYYTNWAKGRFTISKTSTTVGLRITSPTTEDTATYFCTVVGPGVGGFYFDLWGQGTLVTVSS VL: DVVMTQTPASVSDPVGGTVTIRCQASQSIGSDLAWYQQKPGQPPKLLIYAASTLASGVPSRFSGSGSGTEYTLTISDLESADAATYYCQCTYVGSTYLGAFGGGTEVVVK"
test_value = 1.68


QUERY: Quick check: IL-8, cross-linked by F(ab')2 fragment [abs. corr.] of P018.S.01.A.E06 (antibody, V domains shown, V regions on human Ig constant parts; also called AB27_18) VH: QSLEESGGDLVKPGASLTLTCTASGIDFSSSYYMCWVRQAPGKGLEWIGCIATGGGNTYYATWAKGRFTFSETSSTTVTLQMTSLTVADTATYFCARTYPSMWYFNLWGPGTLVTVSS VL: DVVMTQTPASVSEPVGGTVTIKCQASQSIGFNLAWYQQKPGQPPNLLIYGVSTLTSGVSSRFKGSGSGTQFTLTISDLESADAATYYCQSFYAGSSAFGGGTEVVVK ?
RESULT: 1.4

Data provenance: patent US20210253725A1
